Biological target: T1, CRBN, Q96SW2;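 note: pooled lentiviral library of zinc finger degron-EGFP fusions in mCherry-positive Jurkat cells, FACS-sorted after compound exposure, with degron abundance counted by next-generation sequencing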
T1 chain: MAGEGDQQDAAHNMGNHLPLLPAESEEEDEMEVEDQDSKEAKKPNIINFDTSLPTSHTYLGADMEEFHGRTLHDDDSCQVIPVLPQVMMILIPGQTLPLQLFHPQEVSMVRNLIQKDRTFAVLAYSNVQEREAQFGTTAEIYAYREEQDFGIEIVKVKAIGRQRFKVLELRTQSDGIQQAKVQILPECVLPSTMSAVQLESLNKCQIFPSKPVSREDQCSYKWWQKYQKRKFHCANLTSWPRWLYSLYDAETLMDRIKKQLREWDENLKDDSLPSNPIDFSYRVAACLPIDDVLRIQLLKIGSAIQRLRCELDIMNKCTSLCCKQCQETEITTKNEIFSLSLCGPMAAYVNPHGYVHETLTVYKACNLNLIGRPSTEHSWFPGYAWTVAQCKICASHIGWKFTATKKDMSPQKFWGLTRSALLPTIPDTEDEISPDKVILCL
Assay: log2 fold change of degron read counts, EGFP-low vs EGFP+ sorted cells (limma voom), compound-induced degradation; higher = more compound-induced degradation of the degron-EGFP fusion; degrons are variants of IKZF1/3 zinc finger 2; compound dose not given here
Conditions: Jurkat; 18 h; compound: thalidomide
Whole data set: some 8,300 sequences, median “log2 fold change of degron read counts, EGFP-low vs EGFP+ sorted cells (limma voom), compound-induced degradation” near -1.1, cut for the highest 2% near 3.2. The entries come from a sample that favours the highest values as a whole.
ATTRIBUTE_MEASURED: log2 fold change of degron read counts

As a guide, the following entries are already answered.
ITEM_SEQUENCE: FGCEICGACFTQKGNLLRHIKL [46F_47G_49E_50I_52G_53A_54C_55F_67L_, Q9UKT9]
log2 fold change of degron read counts: 1.14
--
ITEM_SEQUENCE: FSCEICGACFTQKGNLLRHIKL [46F_47S_49E_50I_52G_53A_54C_55F_67L_, Q9UKT9]
log2 fold change of degron read counts: 1.4
--
ITEM_SEQUENCE: FTCEICGACFTQKGNLLRHIKL [46F_47T_49E_50I_52G_53A_54C_55F_67L_, Q9UKT9]
log2 fold change of degron read counts: 2.86

Qu. # query: log2 fold change of degron read counts of entry FCCEICGACFTQKGNLLRHIKL [46F_47C_49E_50I_52G_53A_54C_55F_67L_, Q9UKT9]
Ans. 2.24

Reference source: the supplement of paper PMC12645437
